pEC50 by entry:
system: MDA-MB-231 (human breast carcinoma); test: Anti-proliferative activity, Alamar Blue assay, MDA-MB-231; assay type: cell-based; settings: Homo sapiens, MDA-MB-231, 72 h, proliferation, 72 hours compound
pEC50: −log10 of the molar value. Structures can show the parent of a compound that is named as a salt.
MEASURED PARAMETER: pEC50

1) COC(CO)c1nc2c(cc1Cc1ccc(F)cc1)N(C(=O)CN1C[C@@H](C)NC[C@@H]1CN1[C@H](C)COC[C@H]1C)CC2(C)C (single isomer, unassigned) :: 8.60
2) CCCCc1cc2c([nH]c1=O)C(C)(C)CN2C(=O)CN1C[C@@H](C)NC[C@@H]1CN1C[C@H](C)OC[C@H]1C [Example 37, dihydrochloride] :: 7.74
3) CCCCn1cc2c(cc1=O)C(C)(C)CN2C(=O)CN1C[C@@H](C)NC[C@@H]1CN1[C@H](C)COC[C@H]1C [Example 35, dihydrochloride] :: 6.89
